Assay: Hemolytic activity in human RBC at 128 uM measured after 1 hr relative to control
Assay type: ADME, cell-based, Erythrocyte
Settings: human red blood cells (erythrocytes), read-out: Activity
Where a SMILES comes first, the peptide text is derived from it.
reported.property: hemolysis at 1 h, 128 µM

[[record]]
compound = "CC[C@H](C)[C@H](NC(=O)[C@H](CCCCN)NC(=O)[C@H](C)NC(=O)[C@H](C)N)C(=O)N[C@H](C(=O)N[C@@H](CC(C)C)C(=O)N[C@@H](CC(N)=O)C(=O)N1CCC[C@H]1C(=O)N[C@@H](CCCCN)C(=O)N[C@@H](Cc1ccccc1)C(=O)N[C@@H](CCCNC(=N)N)C(=O)N[C@@H](CS)C(=O)N[C@@H](CCCCN)C(=O)N[C@@H](C)C(=O)N[C@@H](C)C(=O)N[C@@H](Cc1ccccc1)C(=O)N[C@@H](CS)C(N)=O)[C@@H](C)CC (H-AAKIILNPKFRCKAAFC-NH2)"
endpoint_value = "20%"


====

Test system: Candida albicans
Assay: Antifungal activity against Candida albicans cgmcc2.2086 measured after 48 hrs in presence of FeCl by broth microdilution method
Format: functional
Conditions: cgmcc2.2086, 48 h
reported.property: MIC95 (µM)

[[record]]
substance = "H-AARIILRLRFR-NH2"
unit_of_measurement = "µM"
comparison_operator = "="
endpoint_value = 8

[[record]]
substance = "H-AARIILRARFR-NH2"
unit_of_measurement = "µM"
comparison_operator = "="
endpoint_value = 16

[[record]]
substance = "H-AARIILRWRFR-NH2"
unit_of_measurement = "µM"
comparison_operator = "="
endpoint_value = 8

[[record]]
substance = "H-AARIILRDRFR-NH2"
unit_of_measurement = "µM"
comparison_operator = ">"
endpoint_value = 128

[[record]]
substance = "H-AARIILRYRFR-NH2"
unit_of_measurement = "µM"
comparison_operator = "="
endpoint_value = 64

[[record]]
substance = "H-AARRILRWIFR-NH2"
unit_of_measurement = "µM"
comparison_operator = "="
endpoint_value = 8

[[record]]
substance = "H-AARIILRTRFR-NH2"
unit_of_measurement = "µM"
comparison_operator = ">"
endpoint_value = 128

[[record]]
substance = "H-AARIILRIRFR-NH2"
unit_of_measurement = "µM"
comparison_operator = "="
endpoint_value = 8

[[record]]
substance = "H-AARIILRWFRR-NH2"
unit_of_measurement = "µM"
comparison_operator = "="
endpoint_value = 8

[[record]]
substance = "H-AARIILRRRFR-NH2"
unit_of_measurement = "µM"
comparison_operator = ">"
endpoint_value = 128

[[record]]
substance = "H-AARIILRFRFR-NH2"
unit_of_measurement = "µM"
comparison_operator = "="
endpoint_value = 8

[[record]]
substance = "H-AARIILRNRFR-NH2"
unit_of_measurement = "µM"
comparison_operator = ">"
endpoint_value = 128

[[record]]
substance = "H-AARIILRPRFR-NH2"
unit_of_measurement = "µM"
comparison_operator = ">"
endpoint_value = 128

[[record]]
substance = "H-AARIILRGRFR-NH2"
unit_of_measurement = "µM"
comparison_operator = "="
endpoint_value = 128

[[record]]
substance = "H-AAKIILNPKFR-NH2"
unit_of_measurement = "µM"
comparison_operator = ">"
endpoint_value = 128


Origin of values: ChEMBL document CHEMBL4350958
